Would you mind telling me the reported selectivity ratio at 72 h of each entry?
assay: Therapeutic index, ratio of IC50 for human NHDF cells to IC50 for human LoVo cells after 72 hrs; type: toxicity; conditions: NHDF cells versus LoVo cells, read-out: Ratio IC50

## Task Let me know recorded selectivity ratio at 72 h for `COc1ccc(/C=C2\CCC/C(=C\c3cc(OC)c(OC)c(OC)c3)C2=O)cc1OC` , thanks.
## Result 3.1 to 4.5

## Task Let me know recorded selectivity ratio at 72 h for `COc1cc(/C=C2\CCC/C(=C\c3cccc(O)c3)C2=O)cc(OC)c1OC` , thanks.
## Result 3.3 to 5.3

## Task Let me know recorded selectivity ratio at 72 h for `COc1ccccc1/C=C1\CCC/C(=C\c2cc(OC)c(OC)c(OC)c2)C1=O` , thanks.
## Result 3.6 to 7.2

## Task Let me know recorded selectivity ratio at 72 h for `COc1cc(/C=C2\CCC/C(=C\c3ccccc3Br)C2=O)cc(OC)c1OC` , thanks.
## Result 3 to 5

* * *

Would you mind telling me the reported pIC50 of each entry?
tested on: T84; experiment: Antiproliferative activity against human T84 cells assessed as reduction in cell viability after 72 hrs by MTT assay; type: functional, cell-based; conditions: T84, 72 h
Just so you know, pIC50 here is -log10 of the concentration in molar units; reply with that number alone.

## Task Let me know recorded pIC50 for `COc1cccc(/C=C2\CCC/C(=C\c3cc(OC)c(OC)c(OC)c3)C2=O)c1OC` , thanks.
## Result 5.41

## Task Let me know recorded pIC50 for `COc1ccc(/C=C2\CCC/C(=C\c3cc(OC)c(OC)c(OC)c3)C2=O)cc1OC` , thanks.
## Result 5.72

## Task Let me know recorded pIC50 for `COc1cc(/C=C2\CCC/C(=C\c3ccc(O)c(Cl)c3)C2=O)cc(OC)c1OC` , thanks.
## Result 5.74

## Task Let me know recorded pIC50 for `COc1cc(/C=C2\CCC/C(=C\c3ccc(F)c(F)c3)C2=O)cc(OC)c1OC` , thanks.
## Result 5.46

## Task Let me know recorded pIC50 for `COc1cc(/C=C2\CCC/C(=C\c3ccc(O)c(O)c3)C2=O)cc(OC)c1OC` , thanks.
## Result 5.44

## Task Let me know recorded pIC50 for `COc1cc(/C=C2\CCC/C(=C\c3ccccc3Br)C2=O)cc(OC)c1OC` , thanks.
## Result 5.38

## Task Let me know recorded pIC50 for `COc1cc(/C=C2\CCC/C(=C\c3cccc(O)c3)C2=O)cc(OC)c1OC` , thanks.
## Result 5.19

## Task Let me know recorded pIC50 for `COc1cc(/C=C2\CCC/C(=C\c3ccccc3F)C2=O)cc(OC)c1OC` , thanks.
## Result 5.66

## Task Let me know recorded pIC50 for `COc1ccccc1/C=C1\CCC/C(=C\c2cc(OC)c(OC)c(OC)c2)C1=O` , thanks.
## Result 5.68

* * *

Would you mind telling me the reported selectivity ratio at 72 h of each entry?
test: Therapeutic index, ratio of IC50 for human NHDF cells to IC50 for human NCI-H508 cells after 72 hrs; format: toxicity; settings: NHDF cells versus NCI-H508 cells, read-out: Ratio IC50

## Task Let me know recorded selectivity ratio at 72 h for `COc1ccc(/C=C2\CCC/C(=C\c3cc(OC)c(OC)c(OC)c3)C2=O)cc1OC` , thanks.
## Result 3.1 to 4.5

## Task Let me know recorded selectivity ratio at 72 h for `COc1cc(/C=C2\CCC/C(=C\c3ccc(O)c(O)c3)C2=O)cc(OC)c1OC` , thanks.
## Result 1.1 to 3.3

## Task Let me know recorded selectivity ratio at 72 h for `COc1cc(/C=C2\CCC/C(=C\c3ccc(O)c(Cl)c3)C2=O)cc(OC)c1OC` , thanks.
## Result 1.8 to 9.9

## Task Let me know recorded selectivity ratio at 72 h for `COc1cc(/C=C2\CCC/C(=C\c3ccccc3F)C2=O)cc(OC)c1OC` , thanks.
## Result 1.8 to 2.7

## Task Let me know recorded selectivity ratio at 72 h for `COc1cc(/C=C2\CCC/C(=C\c3ccc(F)c(F)c3)C2=O)cc(OC)c1OC` , thanks.
## Result 2.7 to 6.5
